Target: various mutants of kinase EGFR (BaF3 cell lines stably transfected with kinase) (Homo sapiens, UniProt P00533, C797S/L858R/T790M)
Construct: expressed in transfected cells; host or cells: BaF3
Sequence (P00533 25-1210 T790M/C797S/L858R): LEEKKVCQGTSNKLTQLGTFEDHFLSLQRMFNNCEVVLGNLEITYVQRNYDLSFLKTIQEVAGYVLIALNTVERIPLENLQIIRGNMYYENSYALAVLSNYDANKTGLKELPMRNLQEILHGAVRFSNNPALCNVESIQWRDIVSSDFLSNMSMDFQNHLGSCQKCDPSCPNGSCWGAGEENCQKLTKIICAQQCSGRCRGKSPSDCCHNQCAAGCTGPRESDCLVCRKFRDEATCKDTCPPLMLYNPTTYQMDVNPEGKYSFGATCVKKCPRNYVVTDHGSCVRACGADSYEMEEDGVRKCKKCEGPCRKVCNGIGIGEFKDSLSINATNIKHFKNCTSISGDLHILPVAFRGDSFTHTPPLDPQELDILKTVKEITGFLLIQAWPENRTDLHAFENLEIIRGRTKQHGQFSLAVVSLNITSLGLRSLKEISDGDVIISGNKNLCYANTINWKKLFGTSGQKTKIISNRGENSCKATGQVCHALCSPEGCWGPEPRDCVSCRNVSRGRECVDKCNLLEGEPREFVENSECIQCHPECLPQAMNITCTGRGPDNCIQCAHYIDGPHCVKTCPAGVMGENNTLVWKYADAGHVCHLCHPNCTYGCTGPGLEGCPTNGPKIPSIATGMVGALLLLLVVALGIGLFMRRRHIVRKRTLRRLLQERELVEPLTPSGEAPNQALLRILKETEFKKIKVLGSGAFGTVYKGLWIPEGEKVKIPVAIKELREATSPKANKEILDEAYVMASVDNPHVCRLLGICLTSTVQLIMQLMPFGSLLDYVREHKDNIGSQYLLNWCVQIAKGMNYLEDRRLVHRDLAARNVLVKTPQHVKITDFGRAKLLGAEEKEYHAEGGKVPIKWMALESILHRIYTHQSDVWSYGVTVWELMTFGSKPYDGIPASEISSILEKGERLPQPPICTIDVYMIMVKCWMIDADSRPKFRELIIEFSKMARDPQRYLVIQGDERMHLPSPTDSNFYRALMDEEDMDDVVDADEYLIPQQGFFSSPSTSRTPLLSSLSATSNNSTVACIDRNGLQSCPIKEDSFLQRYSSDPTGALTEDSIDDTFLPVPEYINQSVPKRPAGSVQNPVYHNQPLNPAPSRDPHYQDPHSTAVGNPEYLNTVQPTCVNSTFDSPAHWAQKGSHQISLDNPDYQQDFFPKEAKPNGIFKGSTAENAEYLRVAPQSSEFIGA
Experiment: Growth inhibitory activity of compounds on BaF3 cell lines stably transfected with kinase (MTS, 48 h)
Format: cell-based
Details: BaF3 cell line stably transfected with EGFR L858R/T790M/C797S, read-out: L858R/T790M/ C797S growth inhibitory activity IC50
Metric name: IC50

COc1cc(N2CCC(N3CCN(C)CC3)CC2)c(CC2CC2)cc1Nc1nc(Nc2ccc3nccnc3c2N(C)S(C)(=O)=O)c2occc2n1 [II-1-43] = 50 to 500 nM
CCc1cc(Nc2ncc(C#N)c(Nc3ccc4nccnc4c3N(C)S(C)(=O)=O)n2)ccc1N1CCC(N2CCN(C)CC2)CC1 [Compound I-346] = ≤ 50 nM
CCc1cc(Nc2ncc(OC)c(Nc3ccc4nccnc4c3N(C)S(C)(=O)=O)n2)c(OC)cc1N1CCC(N(C)C)C1 (stereo not shown) [Compound I-335] = ≤ 50 nM
CCc1cc(Nc2ncc(CC)c(Nc3ccc4nccnc4c3N(C)S(C)(=O)=O)n2)ccc1N1CCC(N2CCN(C)CC2)CC1 [Compound I-319] = ≤ 50 nM
COc1cc(N2CCC(N3CCN(C)CC3)CC2)c(C)cc1Nc1ncc(C(C)C)c(Nc2ccc3nccnc3c2N(C)S(C)(=O)=O)n1 [Compound I-326] = 50 to 500 nM
COc1ccc(N2CCC(O)CC2)cc1Nc1ncc(F)c(Nc2ccc3nccnc3c2N(C)S(=O)(=O)C2CC2)n1 [Compound I-373] = 500 to 2500 nM

Data request: Recorded IC50 for COc1ccc(N2CCC(O)CC2)cc1Nc1ncc(C(C)C)c(Nc2ccc3nccnc3c2N(C)S(C)(=O)=O)n1 [Compound I-364] , please?
Data returned: ≤ 50 nM

Data request: Can you look up the measured IC50 of CCc1cc(Nc2ncc(Br)c(Nc3ccc4nccnc4c3N(C)S(C)(=O)=O)n2)c(OC)cc1N1CCC2(CC1)CC(N(C)C)C2 [Compound I-399] for me?
Data returned: ≤ 50 nM

Data request: Given the compound CCc1cnc(Nc2cc(C)c(N3CCC(N4CCN(C)CC4)CC3)cc2OC)nc1Nc1ccc2nccnc2c1N(C)S(C)(=O)=O [Compound I-317] , what is its reported IC50?
Data returned: ≤ 50 nM

Data request: # input compound: CCc1cc(Nc2ncc(C(C)C)c(Nc3ccc4nccnc4c3N(C)S(C)(=O)=O)n2)c(OC)nc1N1CCC(N2CCN(C)CC2)CC1 [Compound I-328] ; wanted: its IC50
Data returned: 50 to 500 nM

Data request: Look at this compound and give its reported IC50. CCc1cc(Nc2ncc(C(C)C)c(Nc3ccc4nccnc4c3N(C)S(C)(=O)=O)n2)c(OC)cc1N1CCC(N(C)C)C1 (stereo not shown) [Compound I-331]
Data returned: ≤ 50 nM

Data request: State the recorded IC50 for this entry: COc1ccc(N2CCC(O)CC2)cc1Nc1ncc(Cl)c(Nc2ccc3nccnc3c2N(C)S(=O)(=O)C2CC2)n1 [Compound I-374]
Data returned: ≤ 50 nM

Data request: Would you kindly share the measured IC50 for C=Cc1cc(Nc2nc(Nc3ccc4nccnc4c3N(C)S(C)(=O)=O)c3occc3n2)c(OC(F)(F)F)cc1N1CCC(N2CCN(C)CC2)CC1 [II-1-42] ?
Data returned: 50 to 500 nM

Cited source for all entries: patent US20230310428A1
